Test: In vivo study of BBB crossing, HPLC-MS/MS of plasma and brain after IV injection
Design: species or system CD-1 mice
Settings: CD-1, brain and plasma; 5 min after IV injection of 1 mg/kg; mean plasma volume of a mouse evaluated at 1.5 mL; read-out: Log [brain]/[plasma]

# entry_smiles, Kp at 5 min
measured = [
    ("c1ccc(-c2cnc3ccc4ncccc4c3n2)cc1", 0.15),
]

* * *

System: dopaminergic (TH+) neurons derived from primary cultures of embryonic ventral mesencephalon
Assay: Spontaneous degeneration of dopaminergic neurons in primary cultures of embryonic ventral mesencephalon, TH+ neuron count at DIV 10
Assay type: cell-based
Details: Neuron, 240 h; read-out: TH+ neurons, % relative to the control ± standard error
Lab note: compare viability at 1 µM with 40%, writing Condition met if less and Condition not met if equal or more.

# entry_smiles, assigned_label
data = [
    ("Oc1cccc(-c2cnc3ccc4ncccc4c3n2)c1", "Condition not met"),
    ("c1cncc(-c2cnc3ccc4ncccc4c3n2)c1", "Condition not met"),
    ("c1ccc2ncc(-c3cnc4ccc5ncccc5c4n3)cc2c1", "Condition not met"),
    ("COc1cc(-c2cnc3ccc4ncccc4c3n2)cc(OC)c1OC", "Condition not met"),
    ("c1ccc2cc(-c3cnc4ccc5ncccc5c4n3)ccc2c1", "Condition not met"),
    ("Clc1cnc2ccc3ncccc3c2n1", "Condition met"),
    ("Cc1nc2ccc3ncccc3c2nc1-c1ccc2ccccc2c1", "Condition not met"),
    ("c1ccc(-c2cnc3ccc4ncccc4c3n2)cc1", "Condition not met"),
    ("c1cnc2ccc3nccnc3c2c1", "Condition met"),
    ("Fc1ccc(-c2cnc3ccc4ncccc4c3n2)cc1", "Condition met"),
]

Values compiled from patent US10550115B2.
